Data origin, for the record: PubChem BioAssay (NCI)

system: HOP-62 NSCLC; assay: NCI-60 one-dose screen, 48 h (100 = growth as untreated, 0 = no growth, -100 = all killed); details: 10 µM unless noted
Compounds without any hit were thinned out: in the full panel of roughly 83,000, 20% have a hit.
result_type: growth (%)

COc1ccc(C(=O)c2cc(OC)c(OC)c(OC)c2)cc1OC(=O)C(Cl)(Cl)Cl ... 17.3
Cc1nnc(/N=C2\NC(=O)/C(=C/c3ccsc3)S2)s1 ... 80.8
N#Cc1c(-c2ccc(F)cc2)nc(N=Nc2c(O)[nH]c3ccc(Cl)cc23)nc1N1CCOCC1 ... 11.6
COc1cc(/C=C/C(=O)/C=C/c2cc3ccc(Cl)cc3[nH]c2=O)ccc1O ... 114
COC(=O)/C=C1\SC(=Nc2cccc(OC)c2)N(CCc2c[nH]c3ccccc23)C1=O ... 53
COc1cc(-c2nn(-c3ccc(Br)cc3)cc2CO)ccc1O ... 95.4
O=c1c2ccccc2oc2ccc(OCCCCCCN3CCCCCC3)cc12 ... 74.1
O=C(Nc1nc(-c2ccccc2)cs1)c1cc(-c2ccc(Br)cc2)nc2ccccc12 ... 57.1

----------
tested on: OVCAR-3 ovarian; experiment: NCI-60 one-dose screen, 48 h (100 = growth as untreated, 0 = no growth, -100 = all killed); details: 10 µM unless noted
This is part of a sample that, as a whole, favours compounds with a hit. Of some 83,000 tested, about 20% had one in any assay.
Note to self: values exactly at 50% are YES. So growth at or above 50% is YES, below is NO.

O=[N+]([O-])c1ccc(Oc2ccc(-c3ccccc3)cc2)cc1 ... YES
O=C(/C(=C/c1ccc([N+](=O)[O-])cc1)SCc1ccc(Cl)cc1)c1ccc(F)cc1 ... YES
CN(CCC#N)C(=O)Nc1ccccc1 ... YES
Cc1cnc(SCc2ccc(Cl)cc2Cl)nc1Nc1ccc(Cl)c(Cl)c1 ... YES
CCCn1cc(/C=N\N=C2\C(=O)Nc3ccc(C)cc32)c2ccccc21 ... NO
O=C1C(Cl)=C(NCCCN(CCCNC2=C(Cl)C(=O)c3ccccc3C2=O)C2=C(Cl)C(=O)c3ccccc3C2=O)C(=O)c2ccccc21 ... NO

----------
test system: COLO 205 colon; assay: NCI-60 one-dose screen, 48 h (100 = growth as untreated, 0 = no growth, -100 = all killed); settings: 10 µM unless noted
About 83,000 compounds went through this panel and 20% of them were active in at least one assay; those are over-represented in the sample as a whole.
Please note: growth exactly at 60% is NOT MET. Only values below 60% get MET.

Nc1c(C(=O)Nc2ccccc2Cl)sc2nc3c(cc12)CN(Cc1ccccc1)CC3 ... NOT MET
COc1ccc(/C=C(/C(=O)N2CCCC2)c2cc(OC)c(OC)c(OC)c2)cc1 ... MET
CC(/C=C/c1ccccc1)=N/NC(=O)c1ccncc1 ... NOT MET
COc1ccc(OCC(=O)OC(C)C)cc1 ... NOT MET
COc1ccc2[nH]c(-c3ccccc3)c(C=C(C#N)C#N)c2c1 ... MET
O=C(Nc1nc2ccc(C(F)(F)F)cc2s1)c1cc(Cl)ccc1O ... MET
COc1ccc(C(=S)c2cc(OC)c(OC)c(OC)c2)cc1OC(=O)CCl ... MET
Cc1cc(C)cc(Nc2nccc(-c3c(-c4ccc(F)cc4)ncn3C3CCNCC3)n2)c1 ... MET
N#Cc1c(-c2ccc(F)cc2)nc(N/N=C/c2c[nH]c3ccccc23)nc1N1CCOCC1 ... MET
Cc1ccc(SC2c3ccc(C)cc3Oc3nc(N)c(C#N)c(N)c32)cc1 (centres undefined) ... NOT MET
CN(CCC#N)C(=O)Nc1ccccc1 ... NOT MET
Nc1ccc(C2=NN(C(=O)c3cc(-c4ccc(Cl)cc4)nc4ccccc34)C(c3ccc(Cl)cc3)C2)cc1 (centres undefined) ... MET
COc1ccc(-c2nnc(N3CCN(C(=O)CN4CCN(c5ccccc5)CC4)CC3)nc2-c2ccc(OC)cc2)cc1 ... MET
OCCNc1nc(NCCO)nc(Nc2ccc(C3=NN(c4cc(Cl)cc(Cl)c4)C(c4ccccc4)C3)cc2)n1 (centres undefined) ... MET
